What TGI was measured for each of the following?
- Tested on: SF-295 CNS
- Experiment Notes: NCI tumour cell line growth inhibition, 48 h

In plain terms, "O=C(Nc1ccc(F)cc1F)c1cc(Br)ccc1O" has a documented TGI of 3.76 µM

In plain terms, "COc1cccc(-c2nc3sccn3c2-c2ccnc(NCCNS(=O)(=O)c3ccccc3)c2)c1" has a documented TGI of > 100 µM

In plain terms, COC(=O)C1[C@@H](C(=O)OC)C12C=Cc1ccccc1C=C2 (stereo partly specified) has a documented TGI of > 100 µM

In plain terms, O=C1c2ccccc2C2(O)NC(=S)N(c3ccccc3)C12O (stereo unspecified) has a documented TGI of > 100 µM

In plain terms, "COc1ccc(C(c2c[nH]c3ccc(Br)cc23)c2c[nH]c3ccc(Br)cc23)cc1" has a documented TGI of 1.17 µM

In plain terms, "COc1ccc(-c2ccc(-c3ccc(C(=N)N)s3)s2)cc1Cl" has a documented TGI of 3.3 µM

In plain terms, CCOC(=O)C1C(c2ccc(OC)cc2)c2c([nH][nH]c2=O)CC1(O)OCC (stereo unspecified) has a documented TGI of > 100 µM

In plain terms, Cc1ccc(S(=O)(=O)NC2C(=O)c3ccccc3C(=O)C2n2cnc3ccccc32)cc1 (stereo unspecified) has a documented TGI of > 100 µM

In plain terms, "COc1ccc2c(c1)CCc1[nH]c3ccccc3c1CCCC2" has a documented TGI of > 10 µM

In plain terms, COC1OC(C)C(O)CC1OS(=O)(=O)c1ccc(C)cc1 (stereo unspecified) has a documented TGI of > 100 µM

In plain terms, "CSC1=N/C(=C\c2ccco2)C(=O)N1CN1CCCCC1" has a documented TGI of > 100 µM

In plain terms, "O=C(C[n+]1ccccc1)N=N/C(C(=O)Nc1c(Cl)c(O)c2ccccc2c1O)=C1/C(=O)Oc2cc(O)ccc2C1=O" has a documented TGI of 11.8 µM

In plain terms, "O=c1cc(CBr)c2ccc(O)cc2o1" has a documented TGI of > 100 µM

In plain terms, "CN(/N=C/c1ccccn1)C1=NCCCCN1" has a documented TGI of > 100 µM

In plain terms, "CCCn1c(SCC)c2cc3cc4ccccc4cc3cc2c1-c1nc(F)nc(F)n1" has a documented TGI of > 100 µM

In plain terms, "O=[N+]([O-])c1ccc(N=Nc2c(O)ccc3ccccc23)cc1" has a documented TGI of > 100 µM

----------
- System: HS 578T breast
- Experiment Notes: NCI tumour cell line growth inhibition, 48 h
Readout Type: GI50

In plain terms, O=C([O][Hg][CH2]C1COCC([CH2][Hg][O]C(=O)c2ccccc2)O1)c1ccccc1 (centres undefined) has a documented GI50 of 19.8 µM

In plain terms, "CC[Si](CC)(CC)OC[C@]1([C@@H]2COC(C)(C)O2)CC=CC(=O)O1" has a documented GI50 of 34.6 µM

In plain terms, "CC(C)CNc1nc(-c2ccccc2)nc2ccccc12" has a documented GI50 of 16.5 µM

In plain terms, "COc1ccc(-c2ccc(/C=N/n3c(COc4ccc(Cl)cc4Cl)nn(CN4CCN(C)CC4)c3=S)o2)c([N+](=O)[O-])c1" has a documented GI50 of 37.8 µM

----------
What TGI was measured for each of the following?
- Tested on: MDA-N
- Experiment Notes: NCI tumour cell line growth inhibition, 48 h

In plain terms, "O=[N+]([O-])c1ccc(N=Nc2c(O)ccc3ccccc23)cc1" has a documented TGI of > 100 µM

In plain terms, O=C(O)c1ccc2c(c1)CC1(C2)Cc2ccccc2C1=O (stereo not given) has a documented TGI of > 100 µM

In plain terms, CC1(C)CCCCCCC2OC2CCCCCC(C)(C)C1=O (stereo not given) has a documented TGI of > 100 µM

In plain terms, CCOC(=O)c1c(-c2ccc(O)c(OC)c2)c(C#N)c(=S)n(C2OC(COC(C)=O)C(OC(C)=O)C(OC(C)=O)C2OC(C)=O)c1-c1ccccc1 (stereo not given) has a documented TGI of > 100 µM

In plain terms, "COc1ccc(C2=C(N)c3c(OC)cccc3C2=O)cc1" has a documented TGI of > 100 µM

In plain terms, COc1cc(C(c2cc3c(cc2O)OCO3)N2CCCCC2)cc(OC)c1OC (stereo not given) has a documented TGI of 19.8 µM

In plain terms, NC(=O)C(c1ccccc1)N1OC2C(=O)N(c3cccc4ccccc34)C(=O)C2C1c1c2ccccc2c(Cl)c2ccccc12 (stereo not given) has a documented TGI of 7.88 µM

In plain terms, "O=[N+]([O-])c1ccc2[nH]ncc2c1Cl" has a documented TGI of 48.1 µM

In plain terms, "CN(C)C(=O)Nc1cc2c3c(c1)CCCN3CCC2" has a documented TGI of > 10 µM

In plain terms, "N#Cc1c(Cl)c2ccccc2n2c1nc1ccccc12" has a documented TGI of > 100 µM

----------
- System: SF-539 CNS
- Experiment Notes: NCI tumour cell line growth inhibition, 48 h
What TGI was measured for each of the following?

In plain terms, "O=C(c1ccco1)N(C(=S)N1CCN(c2ccccn2)CC1)C1CCCCC1" has a documented TGI of > 100 µM

In plain terms, "O=C1C(=O)c2ccccc2C(O)=C1CN(CCCl)CCCl" has a documented TGI of > 100 µM

In plain terms, "CC1=NN(C(=O)c2ccccc2O)C(=O)/C1=C/c1ccccc1O" has a documented TGI of 2.45 µM

In plain terms, "COc1ccc(/C=C2\CCCCCC2=O)cc1" has a documented TGI of > 100 µM

In plain terms, "Cc1ccc(-c2nc(N)nc3c2nnn3Cc2cccc(CO[C@H]3CCOC3)n2)o1" has a documented TGI of > 100 µM

In plain terms, COc1cc([C@@H]2c3cc4c(cc3C[C@@H]3COC(=O)C32)OCO4)cc(OC)c1O (stereo not given in full) has a documented TGI of 0.0443 µM

In plain terms, COc1cc(C2c3cc4c(cc3OC(Nc3ccccc3)C2C)OCO4)cc(OC)c1OC (stereo not given) has a documented TGI of 0.697 µM

In plain terms, COC1CC(OC2CCC3(C)C(CCC45CCC(C6=CC(=O)OC6)C(C)(CCC43)C5=O)C2)OC(C)C1O (stereo not given) has a documented TGI of 63.3 µM

In plain terms, "O=C(Nc1ccc(F)cc1F)c1cc(Br)ccc1O" has a documented TGI of 10.9 µM

In plain terms, "CCc1nc(N)nc(C(=O)NCCNC(=O)c2nc(N)nc(CC)c2C)c1C" has a documented TGI of > 100 µM

----------
- Test system: SW-620 colon
- Experiment Notes: NCI tumour cell line growth inhibition, 48 h; in the data active means GI50 below about 0.43 µM; inactive means the rest
Where a SMILES comes first, the peptide text is derived from it. [ ]: non-standard residue; d: D form. The star is where a group is joined. ξ: configuration not given here. NMeN = CN[C@@H](CC(N)=O)C(=O)O; NMeV = CN[C@H](C(=O)O)C(C)C; ξNMeV = CNC(C(=O)O)C(C)C; Boc = CC(C)(C)OC(=O)*; ξNMeA = CNC(C)C(=O)O
Outcomes you can answer with include only these: active, inactive

For this compound, state the assay outcome: "COC(=O)c1c2c(c(C)[n+]([O-])c1C)C(=O)C=C(NCc1ccc(OC)cc1)C2=O" inactive

For this compound, state the assay outcome: "C[C@@H]1N=C(c2ccc(Br)cc2)Nc2nc3ccccn3c2C1=O" inactive

For this compound, state the assay outcome: "O=C(Nc1ccc(F)cc1F)c1cc(Br)ccc1O" inactive

For this compound, state the assay outcome: "Nc1ccc2c3c(n(CCCCl)c(=O)c2c1)-c1cc2c(cc1C3=O)OCO2" inactive

For this compound, state the assay outcome: "COc1cc2c(Oc3ccc4[nH]c(C)cc4c3F)ccnc2cc1OCC1(N)CC1" inactive

For this compound, state the assay outcome: "Cc1cc(N2CCN(c3ccnc4cc(Cl)ccc34)CC2)nc(NC2CCCCC2)n1" inactive

For this compound, state the assay outcome: "NC(=N\N=C/c1cccc([N+](=O)[O-])c1)/C(N)=N\N=C/c1cccc([N+](=O)[O-])c1" inactive

For this compound, state the assay outcome: "NC(=O)c1ccc2c(-c3ccnc(NCCCO)n3)c(-c3ccc(F)cc3)nn2c1" inactive

For this compound, state the assay outcome: "COc1ccc(-c2nc3ncccn3c2/C=C/C(=O)c2cc(OC)c(OC)c(OC)c2)cc1" inactive

For this compound, state the assay outcome: COC(=O)C(C)N(C)C(=O)[C@H](CC(N)=O)N(C)C(=O)[C@@H]1CCCN1C(=O)[C@H](C(C)C)N(C)C(=O)C(C(C)C)N(C)C(=O)[C@@H](NC(=O)OC(C)(C)C)C(C)C (stereo partly drawn) (Boc-V[ξNMeV][NMeV]P[NMeN][ξNMeA]-OMe) inactive

For this compound, state the assay outcome: "CCCN1CCN(c2ccc3nc(-c4ccc5nc(-c6cc(OC)ccc6OC)[nH]c5c4)[nH]c3c2)CC1" inactive

For this compound, state the assay outcome: Cc1cc(N2CCCC2)nc(NC2CCCC(Nc3ccnc4cc(Cl)ccc34)C2)n1 (stereo not drawn) inactive

For this compound, state the assay outcome: "O=S(=O)(c1ccc(N=C2NN=C(c3c[nH]c4ccccc34)CS2)cc1)N1CCOCC1" inactive

For this compound, state the assay outcome: "O=C([CH-]C(=O)c1ccccc1)c1ccccc1.O=C([CH-]C(=O)c1ccccc1)c1ccccc1.O=C([CH-]C(=O)c1ccccc1)c1ccccc1.[OH3+].[Y+3]" inactive

For this compound, state the assay outcome: COc1cc2c(cc1OCCCCCCN1CCN(c3ncnc4ccccc34)CC1)N=CC1CCCN1C2=O (stereo not drawn) active

For this compound, state the assay outcome: "C=C[C@H]1CCC/C=C/[C@@H]2C[C@H](O)C[C@H]2[C@H](O)/C=C/C(=O)O1" active

For this compound, state the assay outcome: "c1cc(OCCN2CCCCC2)ccc1CNc1ccc2nc(CCC3CCCCC3)[nH]c2c1" inactive

For this compound, state the assay outcome: "CC[O-].CC[O-].O=C1C(c2ccccc2)=C([O-])c2ccccc21.O=C1C(c2ccccc2)=C([O-])c2ccccc21.[Ti+4]" inactive
